Measured EC50 values are reported for all entries that follow.
target: human FPR2 (Homo sapiens (Human)); test: FPR2 cyclic adenosine monophosphate (cAMP) assay; details: CHO cells overexpressing human FPR2; forskolin 5 µM; inhibition of cAMP production; read-out: hFPR2 cAMP2 EC50
Sequence (P25090 whole entry): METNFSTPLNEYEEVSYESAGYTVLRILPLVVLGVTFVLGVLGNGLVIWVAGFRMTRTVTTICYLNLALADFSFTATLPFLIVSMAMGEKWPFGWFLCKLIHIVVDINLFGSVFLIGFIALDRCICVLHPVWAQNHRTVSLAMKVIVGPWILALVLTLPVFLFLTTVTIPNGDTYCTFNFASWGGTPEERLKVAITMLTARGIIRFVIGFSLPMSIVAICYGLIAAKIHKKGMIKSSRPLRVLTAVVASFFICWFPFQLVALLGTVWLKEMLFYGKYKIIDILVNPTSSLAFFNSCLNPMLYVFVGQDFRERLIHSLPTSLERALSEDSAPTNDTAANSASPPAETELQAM

compound	display_unit	prefix_operator	EC50
COc1cc(F)c([C@@H]2CN(c3cncn(CC(C)O)c3=O)C(=O)[C@H]2NC(=O)c2ccc(OC(F)F)cc2)c(F)c1 (stereo partly shown) [Example 467]	nM	=	1.8
COc1cc(F)c([C@@H]2CN(c3c(C)ccn(CC4CNC(=O)O4)c3=O)C(=O)[C@H]2NC(=O)c2ccc(OC(F)F)cc2)c(F)c1 (stereo partly shown) [Example 665]	nM	<	10
COc1cc(F)c([C@@H]2CN(c3nc(C4CCOCC4)ccc3N(C)C)C(=O)[C@H]2NC(=O)c2ccc(OC(F)F)cc2)c(F)c1 [Example 343]	nM	=	33
COCCn1ccc(C)c(N2C[C@@H](c3ccc(Cl)cc3)[C@H](NC(=O)c3ccc(OC(F)(F)F)cc3)C2=O)c1=O [Example 339]	nM	=	23
COc1cc(F)c([C@@H]2CN(c3cc(C)cn(C)c3=O)C(=O)[C@H]2NC(=O)c2ccc(OC(F)F)cc2)c(F)c1 [Example 244]	nM	=	6.8
COc1cc(F)c([C@@H]2CN(c3ccc4n(c3=O)CCOC4=O)C(=O)[C@H]2NC(=O)c2ccc(OC(F)F)cc2)c(F)c1 [Example 668]	nM	=	8.8
CCn1cc(F)cc(N2C[C@@H](c3c(F)cc(OC)cc3F)[C@H](NC(=O)c3ccc(OC(F)F)cc3)C2=O)c1=O [Example 205]	nM	=	5.4
CCn1ccc(C)c(N2C[C@@H](c3c(F)cc(OC)cc3F)[C@H](NC(=O)c3ccc(OC(F)F)cc3)C2=O)c1=O [Example 197]	nM	=	5.2
CCn1cccc(N2C[C@@H](c3ccc(OC)cc3F)[C@H](NC(=O)c3ccc(OC(F)F)cc3)C2=O)c1=O [Example 83]	nM	=	2.2
COc1cc(F)c([C@@H]2CN(c3c(C)c4c(n(CCO)c3=O)CCC4)C(=O)[C@H]2NC(=O)c2ccc(OC(F)F)cc2)c(F)c1 [Example 591]	nM	=	10.5
COc1ccc([C@@H]2CN(c3cccn(CCO)c3=O)C(=O)[C@H]2NC(=O)c2ccc(OC(F)F)cc2)c(F)c1 [Example 143]	nM	=	3.6
COCC(CO)n1cccc(N2C[C@@H](c3ccc(Cl)cc3)[C@H](NC(=O)c3ccc(OC(F)F)cc3)C2=O)c1=O (stereo partly shown) [Example 307]	nM	=	9.9
COc1ccc([C@@H]2CN(c3cccn(CC(O)C(F)(F)F)c3=O)C(=O)[C@H]2NC(=O)c2ccc(OC(F)F)cc2)c(F)c1 (stereo partly shown) [Example 465]	nM	=	2.9
